Test system: human cervical tumor cell line HeLa (ATCC CCL-2)
method summary: SAC-Formation - Nocodazole-Induced Assay
Assay type: cell-based
conditions: Homo sapiens, HeLa, 24 h, HeLa cells, nocodazole 0.1 μg/ml together with test compound, decrease of mitotic cells (phospho-histone H3 Ser10)
pIC50: −log10 of the molar value.
measured attribute: pIC50

* Cc1nsc(Nc2cc(C#N)ccn2)c1C(=O)Nc1ccc(OC2CCN(CC(F)(F)F)CC2)nc1 | 7.80

[I] Cc1nsc(Nc2cncc(C(F)(F)F)n2)c1C(=O)Nc1ccc(C(=O)NC2CCN(CC(F)(F)F)CC2)cc1
[II] Cc1nsc(Nc2cnc3ccccc3n2)c1C(=O)Nc1ccc(NCCN(C)C(=O)OC(C)(C)C)nc1
[III] Cc1nsc(Nc2cnc(C(F)(F)F)cn2)c1C(=O)Nc1ccc(OCCN(C)CCF)nc1
[IV] Cc1nsc(Nc2cnc(C(F)(F)F)cn2)c1C(=O)Nc1ccc(OCC2CCN(CC(F)(F)F)CC2)nc1
Query string: Order these by pIC50, descending, and give the full ranking. Write the labels out in the order the request specifies.
Result string: IV, I, III, II

* * *

test target: CDK2/CycE (Homo sapiens, UniProt P24941)
Construct: GST
method summary: CDK2/CycE kinase assay (TR-FRET)
conditions: avg, read-out: CDK2 avg (IC50 [mol/l])
Listed next: entries and their corresponding IC50.

Completed entries (count: 2):
* Cc1nsc(Nc2cnccn2)c1C(=O)Nc1ccc(OC2CCCN(C(=O)OC(C)(C)C)C2)nc1 (centres unmarked) | ≥ 20 µM
* Cc1nsc(Nc2cnc3ccccc3n2)c1C(=O)Nc1cccc(C(=O)O)c1 | ≥ 20 µM

Query string: Identify the measured IC50 of Cc1nsc(Nc2cnc(C(F)(F)F)cn2)c1C(=O)Nc1ccc(F)c(OCC2CCN(CCF)C2)c1 (centres unmarked) for CDK2/CycE (Homo sapiens, UniProt P24941).
Result string: > 20 µM

Query string: // fetch CDK2/CycE (Homo sapiens, UniProt P24941) IC50 for CCN(CC)CCNC(=O)c1cccc(NC(=O)c2c(C)nsc2Nc2cnccn2)c1
Result string: > 20 µM

Query string: State its IC50 on CDK2/CycE (Homo sapiens, UniProt P24941): Cc1nsc(Nc2cnc(C(F)(F)F)cn2)c1C(=O)Nc1ccc(OC2CCN(CCC(F)(F)F)CC2)nc1 [Example 10]
Result string: ≥ 20 µM

Query string: Reported IC50 for CDK2/CycE (Homo sapiens, UniProt P24941), given CCN1CC[C@@H](Oc2ccc(NC(=O)c3c(C)nsc3Nc3cnc(C(F)(F)F)cn3)cn2)[C@H](F)C1 ?
Result string: > 20 µM

Query string: Hello, I am looking for reported IC50 with CDK2/CycE (Homo sapiens, UniProt P24941) for Cc1nsc(Nc2cnc3ccccc3n2)c1C(=O)Nc1cccc(NS(=O)(=O)C2CN(CCF)C2)c1 . Could you help?
Result string: > 20 µM

Query string: For the record COC(=O)CCCc1ccc(NC(=O)c2c(C)nsc2Nc2cc(C#N)ccn2)cc1 , what value of IC50 is listed for CDK2/CycE (Homo sapiens, UniProt P24941)?
Result string: > 20 µM

Query string: So what IC50 did Cc1nsc(Nc2cnc(C(F)(F)F)cn2)c1C(=O)Nc1ccc(OCCN(C)CCC(F)(F)F)nc1 get with CDK2/CycE (Homo sapiens, UniProt P24941)?
Result string: ≥ 20 µM

Query string: Query for CDK2/CycE (Homo sapiens, UniProt P24941): what IC50 does the record show for Cc1nsc(Nc2cnc3ccccc3n2)c1C(=O)Nc1cccc(C(=O)NCC(=O)OC(C)(C)C)c1 ?
Result string: ≥ 20 µM

Query string: Param readout= IC50; system= CDK2/CycE (Homo sapiens, UniProt P24941); entry= Cc1nsc(Nc2cnc3cc(F)ccc3n2)c1C(=O)Nc1ccc(S(N)(=O)=O)cc1 ; returns value.
Result string: > 20 µM

Query string: // fetch CDK2/CycE (Homo sapiens, UniProt P24941) IC50 for Cc1nsc(Nc2cnc(C(F)(F)F)cn2)c1C(=O)Nc1ccc(O[C@H]2CCN(CC(F)F)C[C@H]2F)nc1
Result string: > 20 µM

Query string: Which IC50 is reported with CDK2/CycE (Homo sapiens, UniProt P24941) for this entry: Cc1nsc(Nc2nc3c(C(F)(F)F)cccc3s2)c1C(=O)Nc1ccc(OCCO)c(F)c1 ?
Result string: ≥ 20 µM

Query string: Hello, I am looking for reported IC50 with CDK2/CycE (Homo sapiens, UniProt P24941) for Cc1nsc(Nc2ccc(C#N)cn2)c1C(=O)Nc1ccc(OC2CCN(CCF)CC2)nc1 . Could you help?
Result string: ≥ 20 µM

Query string: Hi! What's the reported IC50 for Cc1nsc(Nc2cnc(C(F)(F)F)cn2)c1C(=O)Nc1ccc(OC2CCN(CC(F)F)C2)nc1 (centres unmarked) on CDK2/CycE (Homo sapiens, UniProt P24941)?
Result string: > 20 µM

Query string: Observed IC50 on CDK2/CycE (Homo sapiens, UniProt P24941) for Cc1nsc(Nc2cnc(C(F)(F)F)cn2)c1C(=O)Nc1ccc(OCCO)nc1 , please.
Result string: > 20 µM

Query string: State its IC50 on CDK2/CycE (Homo sapiens, UniProt P24941): Cc1nsc(Nc2cncc(C(F)(F)F)n2)c1C(=O)Nc1ccc(C(=O)NC2CCN(CC(F)(F)F)CC2)cc1
Result string: > 20 µM

Query string: Item Cc1nsc(Nc2cnc3ccccc3n2)c1C(=O)Nc1ccc(OCCCNC(=O)OC(C)(C)C)nc1 with CDK2/CycE (Homo sapiens, UniProt P24941) - IC50?
Result string: ≥ 20 µM

Query string: What is its IC50 for CDK2/CycE (Homo sapiens, UniProt P24941)? Entry: Cc1nsc(Nc2cnc3ccccc3n2)c1C(=O)Nc1cccc(C(=O)N2CCN(C(=O)OC(C)(C)C)CC2)c1
Result string: ≥ 20 µM

Query string: GET /values?readout=IC50&system=CDK2/CycE (Homo sapiens, UniProt P24941)&item= Cc1nsc(Nc2cnc(C(F)(F)F)cn2)c1C(=O)Nc1ccc(OC2CCN(CC(F)(F)F)C2)nc1 (centres unmarked)
Result string: > 20 µM

Query string: Provide the documented IC50 with CDK2/CycE (Homo sapiens, UniProt P24941) as the system for Cc1nsc(Nc2cnc(C(F)(F)F)cn2)c1C(=O)Nc1cccc(NC(=O)OC(C)(C)C)c1
Result string: > 20 µM

Query string: Can you look up IC50 on CDK2/CycE (Homo sapiens, UniProt P24941) for Cc1nsc(Nc2cnc3ccccc3n2)c1C(=O)Nc1cccc(-c2nnc(C(C)(C)C)o2)c1 ?
Result string: ≥ 20 µM

Query string: I'm curious: which IC50 was measured for Cc1nsc(Nc2cnc3ccccc3n2)c1C(=O)Nc1ccc(N2CCOCC2)nc1 tested on CDK2/CycE (Homo sapiens, UniProt P24941)?
Result string: > 20 µM

Cited source for all entries: patent US20170334899A1
